Assay System: KDR (phospho-KDR, VEGF165-stimulated HUVEC cells) (Homo sapiens (Human), UniProt P35968)
Sequence (P35968 20-1356): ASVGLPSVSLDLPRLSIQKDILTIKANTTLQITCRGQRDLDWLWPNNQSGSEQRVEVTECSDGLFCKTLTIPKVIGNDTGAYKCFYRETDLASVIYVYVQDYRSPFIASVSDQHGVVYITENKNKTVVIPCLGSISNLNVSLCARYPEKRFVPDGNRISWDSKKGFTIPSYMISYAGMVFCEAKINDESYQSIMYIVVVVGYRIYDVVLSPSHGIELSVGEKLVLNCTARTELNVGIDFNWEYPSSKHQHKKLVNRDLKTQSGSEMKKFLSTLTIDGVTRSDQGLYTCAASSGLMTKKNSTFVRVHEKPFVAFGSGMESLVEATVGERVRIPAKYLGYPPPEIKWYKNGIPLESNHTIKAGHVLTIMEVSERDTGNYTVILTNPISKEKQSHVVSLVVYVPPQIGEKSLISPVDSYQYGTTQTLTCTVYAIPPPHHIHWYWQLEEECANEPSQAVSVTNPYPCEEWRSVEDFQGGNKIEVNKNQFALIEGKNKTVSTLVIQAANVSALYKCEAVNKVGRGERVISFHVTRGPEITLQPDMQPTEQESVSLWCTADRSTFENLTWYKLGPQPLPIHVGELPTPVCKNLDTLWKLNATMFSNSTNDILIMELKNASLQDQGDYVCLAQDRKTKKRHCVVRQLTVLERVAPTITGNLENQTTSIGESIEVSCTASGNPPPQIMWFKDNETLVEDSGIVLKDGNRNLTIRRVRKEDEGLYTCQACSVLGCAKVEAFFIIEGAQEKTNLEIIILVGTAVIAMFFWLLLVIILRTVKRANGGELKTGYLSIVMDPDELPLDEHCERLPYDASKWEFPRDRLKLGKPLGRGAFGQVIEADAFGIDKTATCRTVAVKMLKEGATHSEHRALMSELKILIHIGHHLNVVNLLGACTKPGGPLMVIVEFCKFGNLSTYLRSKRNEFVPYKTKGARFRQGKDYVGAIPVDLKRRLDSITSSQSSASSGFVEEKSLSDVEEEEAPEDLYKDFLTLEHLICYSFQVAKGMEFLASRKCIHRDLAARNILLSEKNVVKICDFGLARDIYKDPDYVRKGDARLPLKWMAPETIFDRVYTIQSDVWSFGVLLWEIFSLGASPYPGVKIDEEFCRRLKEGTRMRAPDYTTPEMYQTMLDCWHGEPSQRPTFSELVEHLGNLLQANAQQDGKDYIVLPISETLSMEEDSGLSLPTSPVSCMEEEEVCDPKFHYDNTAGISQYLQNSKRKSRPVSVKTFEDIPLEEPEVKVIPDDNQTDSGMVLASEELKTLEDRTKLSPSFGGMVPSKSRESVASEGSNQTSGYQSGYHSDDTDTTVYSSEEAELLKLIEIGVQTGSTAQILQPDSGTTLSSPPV
Measurement Protocol: KDR autophosphorylation ELISA in HUVEC cells (Example G)
Assay type: cell-based
Conditions Used: cellular activity, HUVEC cells
Description: Human umbilical vein endothelial cells or HUVEC (Lonza #C2519A) were seeded at 2×10^4 cells/well onto 96-well plates (Corning #3904), in EGM-2 growth medium (Lonza #CC-3162) containing 1% Penicillin Streptomycin (Thermo Fisher #15140-122). […] IC50 values were calculated by nonlinear regression analysis using a 4-parameter logistic curve fit in ActivityBase XE (IDBS).
Parameter Measured: IC50

> print(dat)
                         chemical.structure    result
1  COc1cc2nccc(Oc3ccc(NC(=O)c4c(C)n(C)c(C)c(-c5ccc(F)cc5F)c4=O)cc3F)c2nc1OC  > 300 nM
2  COc1cnc2c(Oc3ccc(NC(=O)c4c(C)n(C)c(C)c(-c5ccc(F)cc5F)c4=O)cc3F)ccnc2c1  > 300 nM
3  COc1cnc2c(Oc3ccc(NC(=O)c4c(C)n(CC(F)F)cc(-c5ccc(F)c(C)c5)c4=O)cc3F)ccnc2c1  > 300 nM

Inquiry: Entry COc1cnc2c(Oc3ccc(NC(=O)c4c5n(cc(-c6ccc(F)cc6)c4=O)CCOC5)cc3F)ccnc2c1 has what IC50?
Reply text: > 300 nM

Inquiry: Entry COc1cc(F)ccc1-c1cn(CC(F)F)c(C)c(C(=O)Nc2ccc(Oc3ccnc4cc(OC)c(OC)nc34)c(F)c2)c1=O has what IC50?
Reply text: < 100 nM

Inquiry: Entry COc1cc2nccc(Oc3ccc(NC(=O)c4c(C)n(CC(F)F)cc(-c5ccc(F)c(C)c5)c4=O)cc3F)c2nc1OC has what IC50?
Reply text: > 300 nM

Inquiry: Entry COc1cnc2c(Oc3ccc(NC(=O)c4c(C)n(C)c(C)c(-c5ccc(F)cc5OC)c4=O)cc3F)ccnc2c1 has what IC50?
Reply text: > 300 nM

Inquiry: Entry COc1cc2nccc(Oc3ccc(NC(=O)c4c(C)n(C)c(C)c(-c5ccc(F)c(C)c5)c4=O)cc3F)c2nc1OC has what IC50?
Reply text: 100 to 300 nM

Inquiry: Entry COc1cc2nccc(Oc3ccc(NC(=O)c4c(C)n(CCF)cc(-c5ccc(F)c(F)c5)c4=O)cc3F)c2nc1OC has what IC50?
Reply text: 100 to 300 nM

Inquiry: Entry COc1cnc2c(Oc3ccc(NC(=O)c4c(C)n(C)c(C)c(-c5ccc(F)c(F)c5)c4=O)cc3F)ccnc2c1 has what IC50?
Reply text: > 300 nM
